# Test system: TK-10 renal
# experimental.protocol: NCI tumour cell line growth inhibition, 48 h
Kindly state TGI for each of the entries shown.

For orientation, consider the following solved cases.
compound: Cc1ccc(C)c(NC(=O)CC/C(=N\NC(=O)C(=O)NN)C(C)C(=O)c2ccc(O)cc2)c1 (stereo not given)
measurement.target: TK-10 renal
test.value: > 100 µM
//
compound: COC(=O)C(=O)C(C(=O)C=C(C)C)C(=O)C(=O)Nc1cc(C(F)(F)F)ccc1Cl (stereo not given)
measurement.target: TK-10 renal
test.value: > 100 µM
//
compound: CCCCN1C(=O)CC2[C@@H]3CCc4cc(OC(C)=O)ccc4C3CC[C@]2(C)C1=O (stereo not given in full)
measurement.target: TK-10 renal
test.value: > 10 µM
//
compound: COc1ccccc1C1C(C(=O)Nc2ccccc2)=C(C)NC(C)=C1C(=O)Nc1ccccc1
measurement.target: TK-10 renal
test.value: > 100 µM
//
compound: COC(=O)C1=C(C(=O)OC)C2C=CC1C1C(Cl)=C(Cl)C21 (stereo not given)
measurement.target: TK-10 renal
test.value: > 100 µM

Give measured TGI for every item shown.
1. COc1ccc(OC)c(NC(=O)C(=O)C(C(C)=O)c2nc3ccc(Cl)cc3[nH]c2=O)c1 (stereo not given)
2. O=C(N/N=C/c1ccccc1O)c1cccc([N+](=O)[O-])c1
3. CC1OC(n2cc(F)c(=O)[nH]c2=O)CCC1O (stereo not given)
4. CC[C@]1(Cc2ccc(OC)c(OC)c2)CN(S(=O)(=O)c2ccc(C)cc2)C[C@@H]1OC(C)=O

Ans.
["> 50 µM", "> 84.6 µM", "> 100 µM", "> 100 µM"]

----------
Kindly state TGI for each of the entries shown.
# Test system: MOLT-4 leukemia
# experimental.protocol: NCI tumour cell line growth inhibition, 48 h

Give measured TGI for every item shown.
1. Cc1nc2c(sc(=S)n2-c2ccccc2)c2nc3ncccc3n12
2. COC(=O)C1=C(C(=O)OC)C2C=CC1C1C(Cl)=C(Cl)C21 (stereo unspecified)
3. Clc1ccc(C2N3CCCCC3[C@@H]3c4[nH]c5ccccc5c4CCN23)cc1 (stereo partly specified)
4. CCOC(=O)NC(=O)c1cn(C2OC(COC(=O)CCCCCCCCC(=O)OCC3OC(n4cc(C(=O)NC(=O)OCC)c(=O)[nH]c4=O)C(O)C3O)C(O)C2O)c(=O)[nH]c1=O (stereo unspecified)
5. Cc1ccc(S(=O)(=O)C(CC(=O)N2CCCC2)C(=O)c2ccccc2)cc1 (stereo unspecified)

Ans.
["> 100 µM", "> 100 µM", "> 100 µM", "> 100 µM", "> 100 µM"]

Lab note: compound Nc1nc2cc3nc(N)c(N)nc3cc2nc1N tested on MOLT-4 leukemia; recorded TGI was > 100 µM

----------
# Tested on: COLO 205 colon
# experimental.protocol: NCI tumour cell line growth inhibition, 48 h
Kindly state TGI for each of the entries shown.

For orientation, consider the following solved cases.
compound: CCCCCCCCCCCCCC(=O)OC1CC(=O)OC1CO (stereo not drawn)
TGI: > 100 µM
--
compound: CN1C(=O)C2C(=O)N(Cc3ccccc3)CC(=O)N2c2cccnc21 (stereo not drawn)
TGI: > 100 µM
--
compound: O=C(CCCCCCCCC(=O)NN1C(=O)/C(=C\c2ccc(O)c(O)c2)SC1c1ccc(Cl)cc1)NN1C(=O)/C(=C\c2ccc(O)c(O)c2)SC1c1ccc(Cl)cc1 (stereo not drawn)
TGI: > 100 µM

Give measured TGI for every item shown.
1. COC(=O)C(=O)C(C(=O)C=C(C)C)C(=O)C(=O)Nc1cc(C(F)(F)F)ccc1Cl (stereo not drawn)
2. CCCCC/C(C=C(C#N)C#N)=C/c1ccccc1
3. Cc1c(-c2nc3ccccc3[nH]2)c(=O)n(-c2ccccc2)n1C
4. N#C/C(=C1C=C/C(=N/O)C(Br)=C/1)c1ccccc1
5. COc1ccc(-n2c(=O)c3[nH]cnc3n(-c3ccc(OC)cc3)c2=S)cc1
6. CN(C)CCC(=O)N1C/C(=C/c2ccccc2)C(=O)/C(=C\c2ccccc2)C1
7. COc1cccc(/C=N/NC(=O)c2ccccc2Nc2ccnc(C(F)(F)F)c2)c1O

Ans.
["> 100 µM", "16.3 µM", "> 100 µM", "54.7 µM", "> 100 µM", "5.77 µM", "> 53.8 µM"]

----------
# System: HOP-62 NSCLC
# experimental.protocol: NCI tumour cell line growth inhibition, 48 h; in the data active means GI50 below about 0.43 µM; inactive means the rest
Give your call using only these classes: 1.0 for active, 0.0 for inactive

line.notation: Cc1ccc(S(=O)(=O)N(CCOc2ccc(/C(N)=N/Cl)cc2)CCOc2ccc(/C(N)=N\Cl)cc2)cc1
class: 0.0

Qu. Call for entry Cn1cc(-c2cnc3ccc(NC(=O)Nc4ccc(F)c(Br)c4)cc3n2)cn1 :
Ans. 0.0

Qu. Call for entry CC1=C(CCCNS(C)(=O)=O)C2=C(C)C3(CC3)[C@@](C)(O)C(=O)C2=C1 :
Ans. 1.0

Qu. Call for entry CCOC(=O)/C=C(/C(=O)OCC)n1cc(Cl)c(=O)n(CC(=O)OCC)c1=O :
Ans. 0.0

Qu. Call for entry O=C1/C(=C/c2ccc(Br)cc2)C=C(c2ccccc2)N1CCc1ccccc1 :
Ans. 1.0

Qu. Call for entry N#Cc1ccc(C#Cc2ccccc2C#CCCCCO)cc1 :
Ans. 0.0

----------
# Test system: SF-539 CNS
# experimental.protocol: NCI tumour cell line growth inhibition, 48 h
assay.endpoint: TGI

For orientation, consider the following solved cases.
compound: CN1C(=O)N(c2ccccc2)C2(CCN(CC3COc4ccccc4O3)CC2)C1=O (stereo unspecified)
measurement.target: SF-539 CNS
TGI: > 100 µM
--
compound: COC(=O)C[C@H]1CCC2(OCCO2)[C@]1(C)C(=O)OC
measurement.target: SF-539 CNS
TGI: > 100 µM
--
compound: CCOC(=O)CNC(=O)C(CSCc1ccc(Br)cc1)NC(=O)CCC(N)C(=O)OCC (stereo unspecified)
measurement.target: SF-539 CNS
TGI: > 50 µM
--
compound: O=C1/C(=C/c2ccccc2)N=C(c2ccccc2)N1n1c(-c2ccccc2)nc2ccccc2c1=O
measurement.target: SF-539 CNS
TGI: > 100 µM
--
compound: O=C(/C=C/c1ccc(O)c([N+](=O)[O-])c1)CC(=O)/C=C/c1ccc(O)c([N+](=O)[O-])c1
measurement.target: SF-539 CNS
TGI: > 100 µM

Could you now consider this next compound?
Lab note: compound C#CCCCCC#Cc1ccccc1C(=O)OC tested on SF-539 CNS; recorded TGI was > 100 µM

----------
Data export: GI50 values recorded with NCI-H460 lung.

compound: Cc1nn(CN2CCN(C)CC2)c(=S)n1/N=C/c1cccc2ccccc12
test.value: 20.3 µM

compound: COc1ccc(/C(=C2\O[C@@H]([C@H]3COC(C)(C)O3)[C@H]3OC(C)(C)O[C@@H]23)c2cc(OC)c(OC)c(OC)c2)cc1O
test.value: 4.31 µM

compound: CC1OC(O[C@H]2C[C@@H](O)[C@]3(CO)[C@H]4[C@H](O)C[C@]5(C)[C@@H](C6=CC(=O)OC6)CC[C@]5(O)[C@@H]4CC[C@]3(O)C2)C(O)C(O)C1O (some centres undefined)
test.value: 19.1 µM

Value of measured GI50 for the entry COC(=O)CCCCN=Cc1c(O)c(O)c(C(C)C)c2cc(C)c(-c3c(C)cc4c(C(C)C)c(O)c(O)c(C=NCCCCC(=O)OC)c4c3O)c(O)c12 : 1.04 µM

----------
# System: HL-60(TB) leukemia
# experimental.protocol: NCI tumour cell line growth inhibition, 48 h
assay.endpoint: GI50

Give measured GI50 for every item shown.
1. CSc1ccc(C2=NN(C(C)=O)C(c3cc(C)cs3)C2)cc1 (centres undefined)
2. NCC(=O)NS(=O)(=O)OC[C@H]1O[C@@H](n2cnc3c(N)ncnc32)[C@H](O)[C@@H]1O
3. N#C/C(=C1C=C/C(=N/O)C(Br)=C/1)c1ccccc1
4. CCNCCNc1cc(-c2ccc(C(=O)OC)cc2)c(C#N)c2nc3ccccc3n12

Ans.
1. 11.8 µM
2. 2.78 µM
3. 2.16 µM
4. 1.11 µM

Give measured GI50 for every item shown.
1. Cc1ccc2c(c1)C(=O)/C(=C/c1ncc([N+](=O)[O-])n1C)O2
2. CSc1cc(N=Nc2nc3ccccc3s2)c2ccccc2c1O
3. COC(=O)c1cc2c3ccccc3[nH]c2c2ncccc12
4. CCOC(=O)/C=C(/C(=O)OCC)n1cc(Cl)c(=O)n(CC(=O)OCC)c1=O
5. O=C(c1ccco1)c1nc2ccc(C(F)(F)F)cc2[n+]([O-])c1C(F)(F)F
6. O=C(CI)NC1Oc2ccccc2-c2oc(=O)c(-c3ccccc3)cc21 (centres undefined)

Ans.
1. 1.88 µM
2. 0.906 µM
3. > 100 µM
4. 11.2 µM
5. 95.2 µM
6. 2.09 µM

Give measured GI50 for every item shown.
1. COc1ccc2c(c1)c(-c1nc(-c3cn(C)c4ncccc34)cs1)cn2CCCN1CCCCC1
2. Cc1ccc(CS/C(=C\c2ccc([N+](=O)[O-])cc2)C(=O)c2ccc(F)cc2)cc1
3. O=C(Nc1ccc(N2CCNCC2)cc1)c1[nH]ncc1Nc1cc(Oc2ccccc2)ncn1
4. N#CSCC1CC(O)(c2ccccc2)C(c2ccccc2)C(c2ccc(Cl)cc2)O1 (centres undefined)

Ans.
["1.81 µM", "2.9 µM", "1.91 µM", "1.55 µM"]

Entry source: PubChem BioAssay (NCI)
